# Assay Name: Apparent pKa of the amino lipid
# Assay type: physicochemical
Parameter Measured: pKa

For the compound CCCCCCC(CCCC)C(=O)OCCCCCCCCCN(CCCO)CCCCCCCCCOC(=O)C(CCCC)CCCCCC (stereo not shown) , give its measured pKa value.
~6.25
